Assay read-out GI50; system under study: HOP-92 NSCLC.

Field: example entries. Status: answers known.
CCSc1nc2[nH]c(=S)[nH]c(=S)c2c(-c2ccc(OC)c(OC)c2)c1C#N | 19 µM
O=C(/C=C/c1cccc(O)c1)c1cccc(-n2cc(-c3ccc(Cl)cc3)[nH]c2=O)c1 | 1.6 µM
CC(=O)Nc1cccc(C#Cc2cncnc2Nc2ccc(OCc3cccc(F)c3)c(Cl)c2)n1 | 3.61 µM
Clc1ccc(-c2ccc(CNCC3CCNCC3)o2)c(-c2ccccc2)c1 | 1.01 µM
CC(C)OC(=O)Nc1ccc(-c2nc(-c3cccc(OCCN4CCOCC4)c3)c(-c3ccnc(Br)c3)[nH]2)cc1 | 2.45 µM

query: Given COc1cc(C(=O)/C=C/c2c(C)n([O-])c3ccc(C(F)(F)F)cc3[n+]2=O)cc(OC)c1OC , state its recorded GI50.
result: 3.04 µM

###

tested on: SNB-19 CNS; test: NCI tumour cell line growth inhibition, 48 h
property.measured: TGI

Below, each entry is followed by its recorded TGI result.
O=S(=O)(c1ccccc1)[C@H]1[C@@H]2O[C@@H]2C[C@@H]1O | > 100 µM
CCOC(=O)N1CCN(c2ccc3ccc(N)nc3n2)CC1 | > 100 µM
O=c1[nH]cnc2[nH]cc(CN3CCCCC3)c12 | > 100 µM

query: Query (compound): CC(NS(=O)(=O)c1ccc(Cl)cc1)C(=O)O (stereo unspecified) ; field requested: TGI
result: > 100 µM

query: Now consider COC(=O)C(C(=O)C(=O)Nc1nc(=S)[nH][nH]1)c1csc(N)n1 (stereo unspecified) .
result: > 100 µM

query: Ok, now CCOc1ccc(NC(=O)CC2C(=O)Nc3ccccc3S2=O)cc1 (stereo unspecified)
result: > 89.3 µM

###

test system: SNB-19 CNS; assay: NCI tumour cell line growth inhibition, 48 h
Quick rule for you: TGI at 50 µM or higher means 1, lower means 0.

CC(C)(C)OCC1NC(=O)[C@@H]2Cc3c([nH]c4ccccc34)C(C3CCCCC3)N2C1=O (stereo partly drawn) | 1

query: Is TGI at least 50 µM? Consider CCCCC1C=Cn2c(=O)oc3c(OC(C)C)c(OC(C)C)c(O)c1c32 (stereo not drawn)
result: 1

query: Okay, and Cc1c2ccccc2c(C)n2c1nc1cc3ccccc3cc12 ?
result: 0

query: Likewise for CCOC(=O)C1=NC(c2ccccc2)(c2ccccc2)OC1=C(Cl)Cl ?
result: 1

query: Another: C=C1CCC(O)C/C1=C/C=C1\CCCC2(C)C1CCC2C(C)CCCC(C)C (stereo not drawn)
result: 0

query: What do we get for C=C1CC(OC)(C(OC)C(=O)N(C)[C@H]2OCO[C@H]3C2O[C@H](C[C@@H](COC)OC)C(C)(C)C3OC)O[C@H](C)[C@@H]1C (stereo partly drawn) ?
result: 0

query: Also C=C(C(=O)OC1C(CO)OC(OCC2CC[C@@H]3C[C@]4(OC(=O)C3=C)C(C)=CC(=O)C24)C(O)C1O)[C@@H]1CCC(CO)C2C(=O)C=C(C)[C@@]2(O)C1 (stereo partly drawn) ?
result: 0

query: Let us now turn to CC(C)OC(=O)Nc1ccc(-c2nc(-c3cccc(OCCN4CCOCC4)c3)c(-c3ccnc(Br)c3)[nH]2)cc1
result: 1

###

# TGI per entry
test system: HOP-62 NSCLC; assay: NCI tumour cell line growth inhibition, 48 h
Where a SMILES comes first, the peptide text is derived from it. [ ]: non-standard residue; d: D form. The star is where a group is joined. NMeF = CN[CH](Cc1ccccc1)C(=O)O; NMeV = CN[CH](C(=O)O)C(C)C; Boc = CC(C)(C)OC(=O)*

Below: 7 compounds and their reported TGI.
COC(=O)c1c(O)c2c(c3c1OC(C)(C)CC3)OC(C)(C)CC2 | 42.7 µM
Clc1ccc(-c2noc(CN3CCCCC3)n2)cc1 | > 100 µM
O=C(C=P(c1ccccc1)(c1ccccc1)c1ccccc1)CC(=S)CC(=O)C=P(c1ccccc1)(c1ccccc1)c1ccccc1 | 24.8 µM
COC(=O)c1cc(CC2Cc3cc4c(cc3C2)CCC4)cc2c1CCC2 | > 100 µM
CC12CCC3(C1)[C@H](CC2=O)C[C@@H](OC(=O)c1ccccc1)C1C(C)(CO)CCC[C@@]13C (stereo partly drawn) | > 100 µM
O=C1C=C(Nc2ccccc2C(=O)c2ccccc2)c2ccccc2C1=O | > 100 µM
CC(C)C(NC(=O)OC(C)(C)C)C(=O)N(C)C(Cc1ccccc1)C(=O)N(C)C(C(=O)N(C)C(C(=O)O)C(C)C)C(C)C (stereo not drawn) (Boc-V[NMeF][NMeV][NMeV]-OH; configuration not given here) | > 100 µM

Consider the additional compound presented here.
query: Request the reported TGI associated with COc1ccccc1N1CCN(CC(O)COc2c(Br)c(Br)c(Br)c3c2OC(C)(C)C3)CC1 (stereo not drawn)
result: 30.8 µM

###

test system: HCT-15 colon
We begin with a simple list: items and their reported GI50.

Study these solved cases before continuing.
Cc1nc2ccccn2c1NC(=O)NNC(=S)Nc1ccc(Cl)cc1 | > 100000 nM
C=C1C(=O)c2sccc2C(c2ccc(OC)c(OC)c2)C1COC(C)=O (centres undefined) | 2030 nM
COc1ccc(/C(COc2ccc3c(c2)oc(=O)c2cc(OC)ccc23)=N/O)cc1 | 5160 nM

Here's the next entry for you.
query: What value of measured GI50 is listed for O=C1C=C(Nc2ccc([N+](=O)[O-])cc2)c2ccccc2C1=O ?
result: 2420 nM

###

Listed next: entries and their corresponding TGI.
test system: SK-MEL-2 melanoma; assay: NCI tumour cell line growth inhibition, 48 h

Clc1nc(Cl)c2ncn(CC#CCn3cnc4c(Cl)nc(Cl)nc43)c2n1 | 5.55 µM

query: // lookup TGI for CC(=O)c1c(C)cn(S(=O)(=O)NC(=O)Nc2nncs2)c1C
result: > 100 µM

query: # repeat for CCCCCC(=O)n1[nH]c(=O)n(-c2ccc(OC)cc2)c1=O
result: > 100 µM

query: One more compound: CC1(C)C2CCC1(C)[C@H](O)[C@H]2Nc1cc(C(F)(F)F)cc(C(F)(F)F)c1 (stereo not given in full)
result: 5.45 µM

query: Please answer likewise for COc1cccc2c(Nc3ccc(C(=O)O)cc3)cc(-c3ccccc3)nc12
result: > 100 µM

###

tested on: SK-MEL-28 melanoma; test: NCI tumour cell line growth inhibition, 48 h
property.measured: TGI

Solved entries:
CCc1ccccc1N1C(=O)C(=O)C(c2nc3ccccc3s2)C(=O)C1=O | > 100 µM
CC#CC#Cc1cccc(=O)o1 | 16.7 µM
CC(=O)OC1(C)C(=O)OC/C2=C/CN(C)CCC(OC(=O)C(O)(C(C)Cl)CC1C)C2=O (stereo unspecified) | > 100 µM
O=C(CC(=O)Nc1ccc(C(=O)O)cc1)Nc1ccc(C(=O)O)cc1 | > 100 µM
CC1=CP(=O)(OC(C)C)CC(C)=C1Cl (stereo unspecified) | > 100 µM

Moving on to the next molecule.
query: Find the recorded TGI belonging to CC(=O)O[C@H]1C(=O)[C@@]2(C)[C@H]([C@H](OC(=O)c3ccccc3)[C@]3(O)C[C@H](OC(=O)[C@H](OC(=O)OC[C@@H]4COC(C)(C)O4)[C@@H](NC(=O)c4ccccc4)c4ccccc4)C(C)=C1C3(C)C)[C@]1(OC(C)=O)CO[C@@H]1C[C@@H]2O and report it.
result: > 33.3 µM

###

test system: HL-60(TB) leukemia
API: response.call in Yes = active, No = inactive

Some solved cases for reference:
O=C1C=CC(=O)C(c2cc(-c3ccc(Cl)cc3)nn2-c2ccccc2)=C1 | No
C[C@]12CC[C@@H]3c4ccc(O)cc4CC[C@H]3[C@@H]1CC[C@@H]2NS(=O)(=O)c1cccc(OC(F)(F)F)c1 | No

query: Could you check what this test reported for CC#CC#Cc1cccc(=O)o1 ?
result: No

query: Again, but for CCOC(=O)c1ccc2c(c1)c1c(C)c3cnccc3c(C)c1n2C
result: Yes

query: Subsequent entry: Cc1ccc2c(c1)c(C1=C(c3cn(C)c4ccccc34)C(=O)NC1=O)cn2C
result: No

query: // query: Cc1nc2ccccn2c1NC(=O)NNC(=S)Nc1ccc(Cl)cc1
result: No

query: Likewise for CC(=O)Nc1cccc(C#Cc2cncnc2Nc2ccc(OCc3cccc(F)c3)c(Cl)c2)n1 ?
result: No

query: Another compound: Cc1ccc(-c2c3c(nn2-c2ccc(S(=O)(=O)NC(=O)Nc4ccccc4)cc2)-c2ccccc2C3)cc1
result: No

query: Another compound to look at: Cn1cc(C2=C(c3cn(C)c4ccc(OCc5ccccc5)cc34)C(=O)NC2=O)c2ccccc21
result: No

query: How about this compound: CC/C(=C(\c1ccc(Cl)cc1)c1ccc(OCCN2CCCCC2)cc1)c1ccc(O)cc1
result: No

query: Input COc1ccc(C(O)c2cc3c(N)c(C(=O)Nc4ccc(Br)cc4)sc3nc2C)cc1 (stereo not given)
result: No

query: Please do the same for CC(=O)N1CCN([C@H]2CCC[C@@H](NC(=O)c3cc4c(F)ccc(C)c4[nH]3)C2)CC1 as well.
result: No

query: Do the same for CC[C@H](Nc1cc(C)nc(N)n1)c1nc2cccc(NCc3ccc(C(=O)NO)cc3)c2c(=O)n1-c1ccccc1 please
result: No

query: Try this compound next: COC(=O)C(=Cc1ccccc1[N+](=O)[O-])C(=O)OC
result: No

query: Field entry: CCOC(=O)Nc1nc2cc(OC)c(OC)c(OC)c2s1
result: No
